# Test system: human colon cancer cell line (HCT15)
# Method Description: SRB cytotoxicity evaluation, HCT15
# Assay type: cell-based
# Condition Set: Homo sapiens, HCT-15
# key: entry, value: log10(IC50)
Measured Attribute: log10(IC50) (log10 of the value in µM)

>  <Compound>
CCCCn1nnc2c1C(=O)c1cnncc1C2=O

>  <Target Or System>
human colon cancer cell line (HCT15)

>  <log10(IC50)>
-0.75

$$$$
>  <Compound>
COc1ccc(Cn2nnc3c2C(=O)c2cnncc2C3=O)cc1

>  <Target Or System>
human colon cancer cell line (HCT15)

>  <log10(IC50)>
-1.23

$$$$
>  <Compound>
COc1cccc2c1C(=O)c1c(O)c3c(c(O)c1C2=O)C[C@@](O)(C(=O)CO)C[C@@H]3O[C@H]1C[C@H](N)[C@H](O)[C@H](C)O1 [Doxorubicin, reference compound]

>  <Target Or System>
human colon cancer cell line (HCT15)

>  <log10(IC50)>
-0.60

$$$$
>  <Compound>
CCCn1nnc2c1C(=O)c1cnncc1C2=O

>  <Target Or System>
human colon cancer cell line (HCT15)

>  <log10(IC50)>
-0.75

$$$$
>  <Compound>
CCn1nc2c(n1)C(=O)c1cnncc1C2=O

>  <Target Or System>
human colon cancer cell line (HCT15)

>  <log10(IC50)>
-1.74

$$$$
